target-entity: BACE1 (Homo sapiens (Human))
protocol-summary: In vitro BACE1 cell-based assay (Aβ40 in conditioned medium of cells stably expressing APP, HTRF)
Sequence (P56817 46-501, species assumed): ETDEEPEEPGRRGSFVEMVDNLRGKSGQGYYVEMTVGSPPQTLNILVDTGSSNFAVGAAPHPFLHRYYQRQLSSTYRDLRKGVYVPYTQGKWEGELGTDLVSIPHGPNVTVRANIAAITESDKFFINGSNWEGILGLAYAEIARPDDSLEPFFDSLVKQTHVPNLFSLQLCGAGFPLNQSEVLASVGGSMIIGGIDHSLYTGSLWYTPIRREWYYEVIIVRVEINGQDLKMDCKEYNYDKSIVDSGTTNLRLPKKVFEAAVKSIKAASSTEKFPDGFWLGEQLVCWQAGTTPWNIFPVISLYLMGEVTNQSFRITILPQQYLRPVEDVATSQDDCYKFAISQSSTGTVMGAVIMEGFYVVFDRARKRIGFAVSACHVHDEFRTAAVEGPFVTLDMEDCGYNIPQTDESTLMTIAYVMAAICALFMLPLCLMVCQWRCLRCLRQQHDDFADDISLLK
pIC50: −log10 of the molar value.
Would you please tag the item t when its pIC50 is 7 or above, and f when it is below?

Req: Could you please find out whether C#CCOc1cnc(/C(F)=C/c2ccc(F)c([C@@]3(C)N=C(N)C(C)(C)S(=O)(=O)C3(F)F)c2)cn1 has pIC50 that meets 7 or exceeds it?
Resp: f

Req: Does C#CCOc1cnc(/C(F)=C/c2ccc(F)c([C@]3(C)CS(=O)(=O)C(C)(C)C(N)=N3)c2)cn1 have a reported pIC50 of at least 7?
Resp: t

Req: Tell me whether pIC50 is at least 7 here: C#CCOc1cnc(/C(F)=C/c2ccc(F)c([C@@]3(C)N=C(N)C(C)(C)S(=O)(=O)[C@@H]3F)c2)cn1 (single isomer, unassigned)
Resp: f

Req: Could you verify whether the entry Cc1cc(COc2cnc(/C(F)=C/c3cc(F)c(F)c([C@]4(C)CS(=O)(=O)N(C)C(N)=N4)c3)cn2)on1 shows pIC50 of no less than 7?
Resp: f

Req: Could you verify whether the entry C#CCOc1cnc(/C(F)=C/c2ccc(F)c([C@]3(C)CS(=O)(=O)N(C)C(N)=N3)c2)cn1 shows pIC50 of no less than 7?
Resp: t

Req: Is pIC50 for C=CCOc1cnc(/C(F)=C/c2cc(F)c(F)c([C@]3(C)CS(=O)(=O)N(C)C(N)=N3)c2)cn1 at or above 7?
Resp: f

Req: Given the entry C#CCOc1cnc(/C(F)=C/c2ccc(F)c([C@@]3(C)N=C(N)C(C)(C)S(=O)(=O)[C@H]3F)c2)cn1 (single isomer, unassigned) , answer whether its pIC50 meets or surpasses 7.
Resp: f

----------
Assignment: determine reported pIC50 for the given compounds.
target-entity: BACE1 (Homo sapiens (Human))
protocol-summary: In vitro enzymatic BACE1 FRET assay
Format: biochemical
setup-conditions: read-out: BACE1 Enzyme IC50
Sequence (P56817 46-501): as the sequence (P56817 46-501, species assumed) above
Just so you know, pIC50 here is -log10 of the concentration in molar units; reply with that number alone.

Req: Please give the measured pIC50 for this compound: C#C[C@H](C)Oc1cnc(/C(F)=C/c2ccc(F)c([C@@]3(C)N=C(N)N(C)S(=O)(=O)C3(C)C)c2)cn1
Resp: 8.30

Req: // lookup pIC50 for COc1cnc(/C(F)=C/c2ccc(F)c([C@]3(C)CS(=O)(=O)N(C)C(N)=N3)c2)cn1
Resp: 6.97

Req: Could you tell me which pIC50 is on file for CC1(C)C(N)=N[C@](C)(c2cc(/C=C(\F)c3ncc(C#N)cc3Cl)ccc2F)CS1(=O)=O ?
Resp: 8.15

Req: Could you share which pIC50 value was measured for C#CCOc1cnc(/C(F)=C/c2ccc(F)c([C@]3(C)CS(=O)(=O)C(C)(C)C(N)=N3)c2)cn1 ?
Resp: 9.00

Req: Quick one: pIC50 for CN1C(N)=N[C@](C)(c2cc(/C=C(\F)c3ncc(C#N)cc3Cl)ccc2F)CS1(=O)=O ?
Resp: 8.70

Req: Looking for the measured pIC50 of C#CCOc1cnc(/C(F)=C/c2ccc(F)c([C@]3(C)CS(=O)(=O)N(C)C(N)=N3)c2)cn1 , can you help?
Resp: 8.52

Req: Given CN1C(N)=N[C@](C)(c2cc(/C=C(\F)c3ccc(C(F)(F)F)cn3)cc(F)c2F)CS1(=O)=O , state its recorded pIC50.
Resp: 8.15

----------
endpoint-name: IC50 (µM)
A number alone suffices; assume µM.

Req: # get_value(readout= IC50, system= Cathepsin D (CatD) (Homo sapiens (Human), UniProt P07339)) for C#C[C@H](C)Oc1cnc(/C(F)=C/c2ccc(F)c([C@]3(CF)CS(=O)(=O)C(C)(C)C(N)=N3)c2)cn1
Resp: 64.9

Req: # get_value(readout= IC50, system= Cathepsin D (CatD) (Homo sapiens (Human), UniProt P07339)) for CN1C(N)=N[C@](C)(c2cc(/C=C(\F)c3ccc(C(F)(F)F)cn3)ccc2F)CS1(=O)=O
Resp: 206

Req: // lookup IC50 | system=Cathepsin D (CatD) (Homo sapiens (Human), UniProt P07339) | key= CC1(C)C(N)=N[C@](C)(c2cc(/C=C(\F)c3cnc(Cl)cn3)cc(F)c2F)CS1(=O)=O
Resp: 82.3

Req: For the record C[C@]1(c2cc(/C=C(\F)c3cnc(OCC(F)(F)F)cn3)ccc2F)N=C(N)[C@@]2(CF)CC[C@@H]1S2(=O)=O , what value of IC50 is listed for Cathepsin D (CatD) (Homo sapiens (Human), UniProt P07339)?
Resp: 135

Req: What reported IC50 corresponds to C#C[C@@H](CC)Oc1cnc(/C(F)=C/c2ccc(F)c([C@]3(C)CS(=O)(=O)C(C)(C)C(N)=N3)c2)cn1 (single isomer, unassigned) on Cathepsin D (CatD) (Homo sapiens (Human), UniProt P07339)?
Resp: 61.4

Req: Give Cathepsin D (CatD) (Homo sapiens (Human), UniProt P07339) IC50 for CN1C(N)=N[C@](C)(c2cc(/C=C(\F)c3ncc(C(F)(F)F)cc3Cl)ccc2F)CS1(=O)=O
Resp: 99.9

Req: Field: IC50 (Cathepsin D (CatD) (Homo sapiens (Human), UniProt P07339)). Entry: CC1(C)C(N)=N[C@](C)(c2cc(/C=C(\F)c3cnc(OCc4ccncc4)cn3)ccc2F)CS1(=O)=O
Resp: 467

Req: Lab note: need IC50 for CN1C(N)=N[C@](C)(c2cc(/C=C(\F)c3ccc(F)cn3)cc(F)c2F)CS1(=O)=O on Cathepsin D (CatD) (Homo sapiens (Human), UniProt P07339), anyone have it?
Resp: 265

Req: Request: IC50, test system Cathepsin D (CatD) (Homo sapiens (Human), UniProt P07339), entry CN1C(N)=N[C@](C)(c2cc(/C=C(\F)c3ncc(C#N)cc3Cl)ccc2F)CS1(=O)=O
Resp: 119

Req: Which IC50 is reported with Cathepsin D (CatD) (Homo sapiens (Human), UniProt P07339) for this entry: Cc1cc(COc2cnc(/C(F)=C/c3cc(F)c(F)c([C@]4(C)CS(=O)(=O)N(C)C(N)=N4)c3)cn2)no1 ?
Resp: 22.3

Req: Param readout= IC50; system= Cathepsin D (CatD) (Homo sapiens (Human), UniProt P07339); entry= CN1C(N)=N[C@](C)(c2cc(/C=C(\F)C3CCOCC3)cc(F)c2F)CS1(=O)=O ; returns value.
Resp: 194

Req: Observed IC50 on Cathepsin D (CatD) (Homo sapiens (Human), UniProt P07339) for CN1C(N)=N[C@](C)(c2cc(/C=C(\F)c3cnc(OCC(F)(F)C(F)F)cn3)ccc2F)CS1(=O)=O , please.
Sequence (P07339 65-412, species assumed): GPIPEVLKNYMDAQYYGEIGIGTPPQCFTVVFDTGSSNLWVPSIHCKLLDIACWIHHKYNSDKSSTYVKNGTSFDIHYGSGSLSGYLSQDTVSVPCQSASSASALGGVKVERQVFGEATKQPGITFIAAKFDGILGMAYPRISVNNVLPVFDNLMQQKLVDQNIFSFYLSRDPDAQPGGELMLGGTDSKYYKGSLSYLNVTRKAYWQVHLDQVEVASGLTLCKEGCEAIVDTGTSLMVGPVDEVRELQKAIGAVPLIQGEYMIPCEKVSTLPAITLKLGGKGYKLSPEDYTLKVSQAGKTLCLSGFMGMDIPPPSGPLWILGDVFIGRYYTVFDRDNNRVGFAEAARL
Resp: 25.3

Req: Entry Cc1cc(C#N)cnc1/C(F)=C/c1ccc(F)c([C@]2(C)CS(=O)(=O)N(C)C(N)=N2)c1 , system Cathepsin D (CatD) (Homo sapiens (Human), UniProt P07339): what IC50 was measured?
Resp: 137

----------
target-entity: BACE1 (Homo sapiens (Human))
protocol-summary: In vitro enzymatic BACE1 FRET assay
Type: biochemical
setup-conditions: read-out: BACE1 Enzyme IC50
Kindly state pIC50 for each of the entries shown.
Just so you know, pIC50 here is -log10 of the concentration in molar units; reply with that number alone.

Req: Suppose we examine the compound CC1(C)C(N)=N[C@](C)(c2cc(/C=C(\F)c3cnc(OCCC(F)(F)F)cn3)ccc2F)CS1(=O)=O ; what pIC50 value has been reported?
Resp: 6.71

Req: What does the data say about its pIC50? Entry: C[C@]1(c2cc(/C=C(/F)C3CCCO3)ccc2F)N=C(N)[C@@]2(CF)CC[C@@H]1S2(=O)=O (stereo partly shown)
Resp: 5.95

Req: Param item = CN1C(N)=N[C@](C)(c2cc(/C=C(\F)c3nc(C#N)cs3)ccc2F)CS1(=O)=O ; retrieve measured pIC50.
Resp: 7.59

Req: Recorded pIC50 of C#CCOc1cnc(/C(F)=C/c2ccc(F)c([C@@]3(C)N=C(N)C(C)(C)S(=O)(=O)[C@@H]3F)c2)cn1 (single isomer, unassigned) , please.
Resp: 8.22

Req: For the compound shown here, CN1C(N)=N[C@](C)(c2cc(/C=C(/F)c3ccc(Cl)cn3)cc(F)c2F)CS1(=O)=O , give the reported pIC50.
Resp: 6.62

Req: Would you mind telling me what pIC50 value was observed for CC1(C)C(N)=N[C@](C)(c2cc(/C=C(\F)c3cnc(OCC4CCCCC4)cn3)ccc2F)CS1(=O)=O ?
Resp: 7.34

Req: Item C#CCOc1cnc(/C(F)=C/c2ccc(F)c([C@@]3(C)N=C(N)[C@@]4(CF)CC[C@@H]3S4(=O)=O)c2)cn1 has what recorded pIC50?
Resp: 8.52

Req: Endpoint output: pIC50 of CN1C(N)=N[C@](C)(c2cc(/C=C(\F)c3cc4cc(Cl)ccc4cn3)ccc2F)CS1(=O)=O . Value?
Resp: 6.26

Req: What value of measured pIC50 is listed for CN1C(N)=N[C@](C)(c2cc(/C=C(\F)c3ccc(OC(F)(F)F)cn3)ccc2F)CS1(=O)=O ?
Resp: 8.22

Req: // returns reported pIC50 for input CN1C(N)=N[C@](C)(c2cc(/C=C(\F)c3ccc(C#N)s3)ccc2F)CS1(=O)=O
Resp: 7.46

Req: I am curious: what pIC50 value has been reported for CC1(C)C(N)=N[C@](C)(c2cc(/C=C(\F)c3cnc(OCC4CCCC4)cn3)ccc2F)CS1(=O)=O ?
Resp: 7.52

Req: Item CN1C(N)=N[C@](C)(c2cc(/C=C(\F)c3ncc(C(F)(F)F)cc3Cl)ccc2F)CS1(=O)=O has what recorded pIC50?
Resp: 8.30

Req: Suppose we examine the compound CC1(C)C(N)=N[C@](C)(c2cc(/C=C(\F)c3ccc(Cl)cn3)ccc2F)CS1(=O)=O ; what pIC50 value has been reported?
Resp: 8.05

Req: Endpoint output: pIC50 of CN1C(N)=N[C@](C)(c2cc(/C=C(\F)c3ccc(Cl)cn3)cc(F)c2F)CS1(=O)=O . Value?
Resp: 7.82

Req: Any idea what its pIC50 is? The compound is CC#CCOc1cnc(/C(F)=C/c2ccc(F)c([C@@]3(C)N=C(N)N(C)S(=O)(=O)C3(C)C)c2)cn1
Resp: 8.70

Req: // pIC50 lookup, key: Cc1cnc(COc2cnc(/C(F)=C/c3ccc(F)c([C@@]4(C)N=C(N)N(C)S(=O)(=O)C45CC5)c3)cn2)o1
Resp: 7.18

Req: Form field: reported pIC50 of CC1(C)C(N)=N[C@](C)(c2cc(/C=C(\F)c3cnc(OCc4ncco4)cn3)ccc2F)CS1(=O)=O
Resp: 8.15

Req: // query pIC50 value for entry C#CCOc1cnc(/C(F)=C/c2cc(F)c(F)c([C@]3(C)CS(=O)(=O)C(C)(C)C(N)=N3)c2)cn1
Resp: 8.30

Req: Recorded pIC50 for CN1C(N)=N[C@](C)(c2cc(/C=C(\F)c3ccc(C#N)cn3)ccc2F)C(C)(C)S1(=O)=O , please?
Resp: 8.15

Req: State the recorded pIC50 for this entry: CN1C(N)=N[C@](C)(c2cc(/C=C(\F)c3ncc(C#N)cc3Cl)cc(F)c2F)CS1(=O)=O
Resp: 8.70

Req: What pIC50 value was documented for this compound, COc1cnc(/C(F)=C/c2ccc(F)c([C@@]3(C)N=C(N)[C@@]4(CF)CC[C@@H]3S4(=O)=O)c2)cn1 ?
Resp: 7.01

Req: Item under review: CC1(C)C(N)=N[C@](C)(c2cc(/C=C(\F)c3cnc(Cl)cn3)cc(F)c2F)CS1(=O)=O . Reported pIC50?
Resp: 6.92

Req: Bench note: what pIC50 did CC1(C)C(N)=N[C@](C)(c2cc(/C=C(\F)c3cnc(OCC(F)(F)F)cn3)ccc2F)CS1(=O)=O show?
Resp: 7.41

Req: Entry Cc1cc(C#N)cnc1/C(F)=C/c1cc(F)c(F)c([C@]2(C)CS(=O)(=O)N(C)C(N)=N2)c1 has what pIC50?
Resp: 9.00

Req: Given the compound CC1(C)C(N)=N[C@](C)(c2cc(/C=C(\F)c3cnc(Cl)cn3)ccc2F)C(F)(F)S1(=O)=O , what is its reported pIC50?
Resp: 6.89

Req: GET /values?readout=pIC50&item= COC(C)COc1cnc(/C(F)=C/c2ccc(F)c([C@@]3(C)N=C(N)[C@@]4(CF)CC[C@@H]3S4(=O)=O)c2)cn1 (stereo partly shown)
Resp: 7.29

Req: Can you look up the measured pIC50 of CN1C(N)=N[C@](C)(c2cc(/C=C(\F)c3ccc4c(n3)OCCO4)ccc2F)CS1(=O)=O for me?
Resp: 5.42

Req: Fill in: pIC50 of CN1C(N)=N[C@](C)(c2cc(/C=C(\F)c3ccc(Br)cn3)ccc2F)CS1(=O)=O is ___
Resp: 8.22
